Biological target: Heat shock 70 kDa protein 1A (HSP72/HSPA1A) (Homo sapiens) (UniProt P0DMV8)
Sequence (P0DMV8 whole entry, looked up): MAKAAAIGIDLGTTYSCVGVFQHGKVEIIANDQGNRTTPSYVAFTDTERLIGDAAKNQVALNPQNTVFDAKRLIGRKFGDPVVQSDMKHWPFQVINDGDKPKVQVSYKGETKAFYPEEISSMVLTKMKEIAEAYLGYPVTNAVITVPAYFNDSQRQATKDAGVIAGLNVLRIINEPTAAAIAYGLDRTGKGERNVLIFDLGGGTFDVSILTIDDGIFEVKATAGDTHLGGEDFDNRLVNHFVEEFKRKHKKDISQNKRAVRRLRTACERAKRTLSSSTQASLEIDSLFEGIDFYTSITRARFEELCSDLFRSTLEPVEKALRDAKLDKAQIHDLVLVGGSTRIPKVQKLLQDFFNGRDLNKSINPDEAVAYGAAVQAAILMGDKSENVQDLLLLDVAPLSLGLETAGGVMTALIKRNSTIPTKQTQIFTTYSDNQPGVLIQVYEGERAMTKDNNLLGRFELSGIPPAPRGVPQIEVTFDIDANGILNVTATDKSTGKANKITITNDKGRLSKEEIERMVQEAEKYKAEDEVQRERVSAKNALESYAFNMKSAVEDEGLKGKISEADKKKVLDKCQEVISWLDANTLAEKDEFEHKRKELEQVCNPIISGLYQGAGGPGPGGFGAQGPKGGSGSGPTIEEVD
Assay: Covalent inhibition of HSP72-NBD (unknown origin) nucleotide-derived FP probe displacement based by fluorescence polarization assay
pKi: −log10 of the molar value.
propertyLabel: pKi

Please look up its pKi: `N#Cc1ccc(COC[C@H]2O[C@@H](n3c(NCc4ccc(Cl)c(Cl)c4)nc4c(N)ncnc43)[C@H](O)[C@@H]2O)cc1`
> 6.70
